Biological target: human P2X7 receptor (Homo sapiens, UniProt Q99572, R270H/Y155H)
Test: Evaluation of human P2X7 receptor inhibitory activity (Yo-Pro uptake, BzATP stimulation, FLIPR TETRA)
Format: cell-based
Details: antagonistic activity for the human P2X7 receptor; read-out: IC50
I'd be grateful if you could share measured IC50 for these entries.

As a guide, the following entries are already answered.
• COc1cn(Cc2ccc(F)c(F)c2)c(Nc2cc(OC(F)F)c(C)cc2C)nc1=O [Compound I-0878] = < 10 nM
• Cc1cc2c(cc1Nc1nc(=O)c(C#N)cn1Cc1cc(F)c(F)c(F)c1)COC2 [Compound I-1130] = 10 to 100 nM
• COc1ccc(Nc2nc(=O)c(C)nn2Cc2cc(F)c(F)c(F)c2)c(C)c1 [Compound I-1277] = < 10 nM
• CCOC(=O)c1nn(Cc2cc(F)c(F)c(F)c2)c(Nc2cc(OC)c(OC)cc2C)nc1=O [Compound I-1252] = 10 to 100 nM
• Cc1c(CO)cccc1Nc1nc(=O)c(F)cn1Cc1cc(F)c(F)c(F)c1 [Compound I-1177] = < 10 nM

Parameters: items (list). Returns: IC50 for each item.
1. COc1cn(Cc2cc(F)cc(F)c2)c(Nc2cc(Cl)c(F)cc2C)nc1=O [Compound I-0812]
2. CCc1cc(OC)ccc1Nc1nc(=O)c(F)cn1Cc1cc(F)cc(F)c1 [Compound I-1214]
3. COc1cc(Nc2nc(=O)c(F)cn2Cc2ccc(F)c(Cl)c2)c(C)cc1F [Compound I-1051]

["10 to 100 nM", "< 10 nM", "< 10 nM"]

----------
Biological target: human P2X7 receptor (Homo sapiens, UniProt Q99572, R270H/Y155H)
Test: Evaluation of human P2X7 receptor inhibitory activity (Yo-Pro uptake, BzATP stimulation, FLIPR TETRA)
Type: cell-based
Settings: antagonistic activity for the human P2X7 receptor; read-out: IC50
Experimental: Stably expressing cell line (1321N1 cell transfected with the human P2X7 receptor gene (GenBank accession number NM_002562.5 including T606C and G952A SNP)) was used. […] Measurement of fluorescence intensity by FLIPR TETRA was started. […] Changing values of fluorescence intensity by the compound of the present invention were calculated by difference between maximum and minimum fluorescence intensity for 20 minutes. Inhibition ratios (%) were calculated from the following equation: […]
pIC50: −log10 of the molar value.
Can you tell me pIC50 for the items I'm about to list?

Here is how some compounds turned out for pIC50.
* CCc1cc2c(cc1Nc1nc(=O)c(OC)cn1Cc1cc(F)cc(F)c1)OC(F)(F)O2 | 6.30 to 7.00
* COc1cn(Cc2ccccc2)c(Nc2cc(C(C)(C)O)ccc2C)nc1=O | 7.00 to 8.00
* C#Cc1cc(Nc2nc(=O)c(OC)cn2Cc2ccc(F)c(Cl)c2)c(C)cc1F | 7.00 to 8.00
* COc1cc(Nc2nc(=O)c(OC)cn2Cc2ccc(F)c(Cl)c2)c(C)cc1F | > 8.00
* COc1nc(C)c(Nc2nc(=O)c(F)cn2Cc2ccc(F)c(F)c2)cc1C | > 8.00
* COc1cc(C)c(Nc2nc(=O)c(C(=O)O)nn2Cc2cc(F)c(F)c(F)c2)cc1OC | 7.00 to 8.00
* CCOc1ccc(C)c(Nc2nc(=O)c(OC)cn2Cc2cc(F)c(F)c(F)c2)c1 | > 8.00

Give reported pIC50 value for `Cc1cc(C)c(Nc2nc(=O)c(Br)cn2Cc2cc(F)cc(F)c2)cc1C` > 8.00

----------
Target: human P2X7 receptor (Homo sapiens, UniProt Q99572, R270H/Y155H)
Assay: Evaluation of human P2X7 receptor inhibitory activity (Yo-Pro uptake, BzATP stimulation, FLIPR TETRA)
Format: cell-based
Conditions: 1321N1 cells stably expressing human P2X7 receptor; BzATP stimulation, Yo-Pro uptake; read-out: IC50 (antagonistic activity for the human P2X7 receptor), class symbol
pIC50: −log10 of the molar value.
measured_attribute: pIC50

- COc1cn(Cc2cc(F)cc(F)c2)c(Nc2ccc(OC(F)F)cc2C)nc1=O: 7.00 to 8.00
- COc1cn(Cc2ccc(F)c(Cl)c2)c(NCc2cccc(Cl)c2C)nc1=O: 6.30 to 7.00
- COc1cn(Cc2ccc(F)cc2)c(Nc2cccc(C)c2C)nc1=O: 7.00 to 8.00
- COc1cn(Cc2cccc(OC(F)(F)F)c2)c(Nc2cccc(Cl)c2C)nc1=O: 6.00 to 6.30
- Cc1c(Cl)cccc1Nc1nc(=O)c(F)cn1Cc1ccc(F)c(F)c1: > 8.00
- COc1cn(Cc2cc(F)cc(F)c2)c(Nc2cc(C)c(C)cc2C)nc1=O: > 8.00
- COc1cn(Cc2ccc(F)c(Cl)c2)c(Nc2cc(OCC(F)(F)F)ccc2C)nc1=O: 7.00 to 8.00

Switching to the query record.
Please look at this compound and report its pIC50: `COc1cn(Cc2ccc(Cl)cc2)c(Nc2cc(C)c(Cl)cc2C)nc1=O` 7.00 to 8.00

----------
Target: human P2X7 receptor (Homo sapiens, UniProt Q99572, R270H/Y155H)
Assay: Evaluation of human P2X7 receptor inhibitory activity (Yo-Pro uptake, BzATP stimulation, FLIPR TETRA)
Assay type: cell-based
Settings: 1321N1 cells stably expressing human P2X7 receptor; BzATP stimulation, Yo-Pro uptake; read-out: IC50 (antagonistic activity for the human P2X7 receptor), class symbol
pIC50: −log10 of the molar value.
I'd be grateful if you could share measured pIC50 for these entries.

Recorded pIC50, per entry:
* COc1cn(Cc2ccc(F)c(Cl)c2)c(Nc2cc(N3CCCC3=O)ccc2C)nc1=O | > 8.00
* COc1cn(Cc2ccc(F)c(F)c2)c(Nc2cc(OCC(F)(F)F)ccc2C)nc1=O | 7.00 to 8.00
* COc1cn(Cc2ccc(F)c(Cl)c2)c(Nc2cc(N3CCCS3(=O)=O)ccc2C)nc1=O | > 8.00

Next compound, pIC50 to be filled in.
Write down the reported pIC50 (system: human P2X7 receptor (Homo sapiens, UniProt Q99572, R270H/Y155H)) of `CCOC(=O)Cc1cn(Cc2ccccc2)c(Nc2cccc(Cl)c2C)nc1=O` 6.30 to 7.00

----------
Molecular target: human P2X7 receptor (Homo sapiens, UniProt Q99572, R270H/Y155H)
Experiment: Evaluation of human P2X7 receptor inhibitory activity (Yo-Pro uptake, BzATP stimulation, FLIPR TETRA)
Format: cell-based
Conditions: 1321N1 cells stably expressing human P2X7 receptor; BzATP stimulation, Yo-Pro uptake; read-out: IC50 (antagonistic activity for the human P2X7 receptor)
pIC50: −log10 of the molar value.
pIC50 of 8 or higher: 1 (yes). Under 8: 0 (no).

* COc1cnc(Nc2cc(N3CCCC3=O)ccc2C)n(Cc2ccc(F)c(Cl)c2)c1=O [Compound I-0986] | 0 (no)
* COc1cn(Cc2cc(F)cc(F)c2)c(Nc2cccc(SC)c2C)nc1=O [Compound I-0550] | 1 (yes)
* COc1cn(Cc2ccc(F)c(Cl)c2)c(N[C@@H]2CCc3ccccc32)nc1=O [Compound I-0335] | 0 (no)
* COc1cc(C)c(Nc2cc(=O)n(C)c(=O)n2Cc2cc(F)c(F)c(F)c2)cc1C [Compound I-0991] | 0 (no)
* COc1cn(Cc2ccc(F)c(Cl)c2)c(Nc2cc(C#N)ccc2C)cc1=O [Compound I-0957] | 0 (no)

Determine whether measured pIC50 meets or exceeds 8 for COc1cn(Cc2cc(F)cc(Cl)c2)c(Nc2cc(Cl)cc3[nH]ccc23)nc1=O [Compound I-0821] 1 (yes)

Tell me whether pIC50 is at least 8 here: COc1cn(Cc2cc(F)c(F)c(F)c2)c(Nc2cc3sc(C)nc3cc2C)nc1=O [Compound I-0940] 0 (no)

Reported pIC50 at or above 8? COc1cn(Cc2cc(F)c(F)c(F)c2)c(Nc2cc3sc(C)nc3cc2C)nc1=NC#N [Compound I-1285] 0 (no)

----------
Target: human P2X7 receptor (Homo sapiens, UniProt Q99572, R270H/Y155H)
Test: Evaluation of human P2X7 receptor inhibitory activity (Yo-Pro uptake, BzATP stimulation, FLIPR TETRA)
Type: cell-based
Details: 1321N1 cells stably expressing human P2X7 receptor; BzATP stimulation, Yo-Pro uptake; read-out: IC50 (antagonistic activity for the human P2X7 receptor), class symbol
Protocol: Stably expressing cell line (1321N1 cell transfected with the human P2X7 receptor gene (GenBank accession number NM_002562.5 including T606C and G952A SNP)) was used. […] Measurement of fluorescence intensity by FLIPR TETRA was started. […] Changing values of fluorescence intensity by the compound of the present invention were calculated by difference between maximum and minimum fluorescence intensity for 20 minutes. Inhibition ratios (%) were calculated from the following equation: […]
measured_attribute: IC50

# per-item lookup of IC50; items listed below
1. COc1cc(C)c(Nc2nc(=O)c(F)cn2Cc2cccc(Cl)c2)cc1OC [Compound I-0308]
2. COc1c(C)cccc1Nc1nc(=O)c(OC)cn1Cc1ccccc1 [Compound I-0130]
3. COc1cn(Cc2cccc(F)c2)c(Nc2cc3c(cc2C)OCCO3)nc1=O [Compound I-0288]
4. COc1cn(Cc2cc(C)cc(F)c2)c(Nc2cccc(Cl)c2C)nc1=O [Compound I-0466]

["< 10 nM", "100 to 500 nM", "10 to 100 nM", "10 to 100 nM"]

Determine its reported IC50: COc1cn(Cc2ccccc2)c(Nc2cc(C)c(C)cc2C)nc1=O [Compound I-0124] < 10 nM
